Origin of the recorded values: paper PMC9482650

Biological target: HTRA2, O43464
Sequence (O43464 355-458): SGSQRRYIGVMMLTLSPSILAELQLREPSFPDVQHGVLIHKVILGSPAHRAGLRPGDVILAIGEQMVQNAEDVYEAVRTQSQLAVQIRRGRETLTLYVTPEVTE
Assay: holdup assay
Parameters: key: below the threshold = too weak to quantify, mostly under pKd 3.1 to 4
Settings: plain residues with an end cap or a label only (N-terminal biotin on a linker: ado-ado)
OUTCOME_MEASURE: pKd

Worked set:
QLKSGRDSTV [TMEM178A, Q8NBL3] | 3.65
IKLETKKTKL [SLC15A2, Q16348] | 3.52
DSEEELPTRL [GRK6, P43250] | below the threshold
AKADAQESRL [PLCB2, Q00722] | below the threshold

The following binders each have a reported value; give each one's pKd.
1. FLVTEFNVML [DFNB31, Q9P202]
2. DFKHTKSFII [JAM2, P57087]
3. GSQSQVETEA [FKBP4, Q02790]
4. PSDSVGKDVF [EGLN1, Q9GZT9]

1: below the threshold; 2: 3.88; 3: below the threshold; 4: below the threshold
